Each entry below lists one item and its recorded GI50 value.
Test system: NCI-H2170 (HER2 wild type) cells
METHOD: Tumor cell proliferation assay NCI-H2170 (HER2 wild type)
Assay type: cell-based
EXPERIMENTAL CONTEXT: Homo sapiens, 72 h, CellTiter-Glo, read-out: GI50 NCI H-2170 HER2 wt amp.
Quick note: give the figure in nM, leave out the unit.

Some solved entries appear below for comparison.
molecule="C=CC(=O)N1CCN(c2ncc3ncnc(Nc4ccc(Oc5ccc6c(c5)ncn6C)c(Cl)c4)c3n2)CC1 [Compound I-4]" measured_number=11
molecule="C#Cc1cc(Nc2ncnc3cnc(N4CCN(C(=O)C=C)CC4)nc23)ccc1Oc1ccc2c(c1)ncn2C [Compound I-2]" measured_number=9
molecule="C=CC(=O)N1CCN(c2ncc3ncnc(Nc4ccc(Oc5ccc6c(c5)ncn6C)c(Br)c4)c3n2)CC1 [Compound I-5]" measured_number=16

Kindly review the next molecule as well.
Looking for the measured GI50 of C=CC(=O)N1CCN(c2ncc3ncnc(Nc4ccc(Oc5ccc6c(c5)ncn6C)c(OC)c4)c3n2)CC1 [Compound I-3] , can you help?
18

Origin of measurements: patent US20230126204A1
